# conditionDescription: in isopentanol, 303.15 K
propertyName: solubility (mole fraction)
The reply should be a number, written without any unit.

Inquiry: Form field: reported solubility (mole fraction) of CC1=NN(c2ccccc2)C(=O)C1
Reply text: 0.0282

---

# conditionDescription: in n-propyl acetate, 313.15 K
propertyName: solubility (mole fraction)

Inquiry: Entry CC1=NN(c2ccccc2)C(=O)C1 : reported solubility (mole fraction) = ?
Reply text: 0.0384

---

# conditionDescription: in 2-butanone, 293.15 K
propertyName: solubility (mole fraction)

Inquiry: What solubility (mole fraction) value was documented for this molecule, CC1=NN(c2ccccc2)C(=O)C1 ?
Reply text: 0.0313

---

# conditionDescription: in isobutyl acetate, 313.15 K
propertyName: solubility (mole fraction)

Inquiry: solubility (mole fraction) lookup needed for CC1=NN(c2ccccc2)C(=O)C1 , thanks.
Reply text: 0.0229

---

# conditionDescription: in isopropyl acetate, 298.15 K
propertyName: solubility (mole fraction)
Response field accepts a number only; no unit should be typed.

Inquiry: // lookup solubility (mole fraction) for CC1=NN(c2ccccc2)C(=O)C1
Reply text: 0.0162

---

# conditionDescription: in n-hexane, 298.15 K
propertyName: solubility (mole fraction)
Note: the reply should be a number with no unit written.

Inquiry: What solubility (mole fraction) value was documented for this molecule, CC1=NN(c2ccccc2)C(=O)C1 ?
Reply text: 0.00052

---

# conditionDescription: in dimethyl carbonate, 298.15 K
propertyName: solubility (mole fraction)
Please reply with the number alone, leaving off any unit.

Inquiry: Bench note: what solubility (mole fraction) did CC1=NN(c2ccccc2)C(=O)C1 show?
Reply text: 0.0201

---

# conditionDescription: in dimethyl carbonate, 283.15 K
propertyName: solubility (mole fraction)

Inquiry: Suppose we examine the compound CC1=NN(c2ccccc2)C(=O)C1 ; what solubility (mole fraction) value has been reported?
Reply text: 0.0118

---

# conditionDescription: in ethyl lactate, 323.15 K
propertyName: solubility (mole fraction)

Inquiry: Given the molecule CC1=NN(c2ccccc2)C(=O)C1 , what is its reported solubility (mole fraction)?
Reply text: 0.0735

---

# conditionDescription: in MIBK, 298.15 K
propertyName: solubility (mole fraction)
Please give only the number in your answer, with no unit.

Inquiry: Param item = CC1=NN(c2ccccc2)C(=O)C1 ; retrieve measured solubility (mole fraction).
Reply text: 0.0243

---

# conditionDescription: in MIBK, 293.15 K
propertyName: solubility (mole fraction)
Reply briefly: the number, and no unit.

Inquiry: GET /values?readout=solubility (mole fraction)&item= CC1=NN(c2ccccc2)C(=O)C1
Reply text: 0.0198

---

# conditionDescription: in 1,2-dichloroethane, 283.15 K
propertyName: solubility (mole fraction)
Simply state the number, no unit and no words.

Inquiry: Suppose we examine the compound CC1=NN(c2ccccc2)C(=O)C1 ; what solubility (mole fraction) value has been reported?
Reply text: 0.0262

---

# conditionDescription: in isopropyl acetate, 318.15 K
propertyName: solubility (mole fraction)
Please state the value as a number alone, without comment.

Inquiry: Look at this compound and give its reported solubility (mole fraction). CC1=NN(c2ccccc2)C(=O)C1
Reply text: 0.032

---

# conditionDescription: in n-propyl acetate, 323.15 K
propertyName: solubility (mole fraction)
Lab note: jot down the number only; don't add units.

Inquiry: // lookup solubility (mole fraction) for CC1=NN(c2ccccc2)C(=O)C1
Reply text: 0.0551

---

# conditionDescription: in ethyl lactate, 298.15 K
propertyName: solubility (mole fraction)

Inquiry: Look up solubility (mole fraction) for this compound: CC1=NN(c2ccccc2)C(=O)C1
Reply text: 0.0392
